# System: maize HMG13 gene in maize A188 immature embryos
# experimentNotes: Genome editing SDN-1 in regenerated T0 plants of maize A188 (Example 5)
# Type: cell-based
# protocolConditions: per regenerated T0 event
% SDN-1/Event by entry:
Record the value in %, omitting the unit from your answer.

Completed entries (count: 3):
- molecule: "RBP8: artificial regeneration booster protein, SEQ ID NO: 39 (CDS SEQ ID NO: 27), construct pABM-BdEF1_RBP8 (protein) MVSKGEEVIKEFSGSTRWNPTAEQVKVLREIYYRAGLRTPSADQIRQISSQLKRYGKVEGKNVFYWFQNHKARERQKKRLSTVGSAGSAAGSGEFRHVKTLPLFPLHNNEDSGSGLDLDLNLELRLSATAAATSGSQRASALDLDLELRLGFALGNESCGLHDN"
  measured: 13.4
- molecule: "RBP5: artificial regeneration booster protein, SEQ ID NO: 36 (CDS SEQ ID NO: 24), construct pABM-BdEF1_RBP5 (protein) MVSKGEEVIKEFSGSTRWNPTAEQLSLLKELYYRNGIRTPSADQIRQISARLSRYGKIEGKNVFYWFQNHKARERQKKRLSTVGCGSAGSAAGSGEFRHVKTLPLFPLHNNVETLPLFPEDSGSLDLELELGFASATAAATSGSQRASALDLCLSLGNESCGLHDN"
  measured: 4.9
- molecule: "RBP2: artificial regeneration booster protein, SEQ ID NO: 33 (CDS SEQ ID NO: 21), expressed from construct pABM-BdEF1_RBP2 (protein) MESGSGTAAGSGYVYRQSGSTRWNPTAEQLSLLKELYYRNGIRTPSADQIRQISARLSRYGKIEGKNVFYWFQNHKARERQKKRLSTVGCDPALIEMGNVASLEFGTESALESLSSGPSSELREAPTRKFYEKKTVGENSTIINPVEQNCTLSCGTSQEFQYAVDSRRVMKAMEEKQATDDEPDGNKWTESNRHVKTLPLFPLHNNEDQTLIKSDKEIYCLGSCEKKMDLSPLGHSGSQRASALDLCLSLGNESCGLHDN"
  measured: 14.3

Now for another entry.
Exam item: Entry RBP7: artificial regeneration booster protein, SEQ ID NO: 38 (CDS SEQ ID NO: 26), construct pABM-BdEF1_RBP7 (protein) MVSKGEEVIKEFSGSTRWNPTAEQLSLLKELYYRNGIRTPSADQIRQISARLSRYGKIEGKNVFYWFQNHKARERQKKRLSTVGCDPALIEMGNVASLEFGTESALESLSSGPSSELREAPTRKFYEKKTVGENSTIINPVEQNCTLSCGTSQEFQYAVDSRRVMKAMEEKQATDDEPDGNKWTESNRHVKTLPLFPLHNNVETLPLFPEDSGSLDLELELGFASGGSAGSVDTLPLFPREAAGSGEFATAAATSGSQRASALDLCLSLGNESCGLHDN has what % SDN-1/Event?
Marked response: 12.0

Hey, just so you know, these numbers are from patent US12637685B2.
